test system: C. glabrata T-982 (11-181); assay: MIC, broth double dilution; format: cell-based; settings: strain no. 46, T-982 (11-181), clinical isolate
assay metric: MIC

CC[C@H](C)C[C@H](C)CCCCCCCCC(=O)N[C@H]1C[C@@H](O)[C@@H](NCCNC(=O)CCc2ccc3n2[B-](F)(F)[N+]2=C(C)C=C(C)C2=C3)NC(=O)[C@@H]2[C@@H](O)CCN2C(=O)[C@H]([C@H](O)CCN)NC(=O)[C@H]([C@H](O)[C@@H](O)c2ccc(O)cc2)NC(=O)[C@@H]2C[C@@H](O)CN2C(=O)[C@H]([C@@H](C)O)NC1=O :: 1 µg/mL

Problem: I have this molecule here, CN(C)c1ccc2c(-c3ccc(C(=O)NCCCN=[N+]=[N-])cc3C(=O)[O-])c3ccc(=[N+](C)C)cc-3oc2c1 [Compound 5-TMR-azide] , and I need its recorded MIC.
Solution: >64 µg/mL

Problem: What do we get for `CC[C@H](C)C[C@H](C)CCCCCCCCC(=O)N[C@H]1C[C@@H](O)[C@@H](NCCN)NC(=O)[C@@H]2[C@@H](O)CCN2C(=O)[C@H]([C@H](O)CCN)NC(=O)[C@H]([C@H](O)[C@@H](O)c2ccc(OCc3cn(CCCNc4ccc([N+](=O)[O-])c5nonc45)nn3)cc2)NC(=O)[C@@H]2C[C@@H](O)CN2C(=O)[C@H]([C@@H](C)O)NC1=O` ?
Solution: 2 µg/mL

Problem: What do we get for `C#CCOc1ccc([C@H](O)[C@@H](O)[C@@H]2NC(=O)[C@@H]3C[C@@H](O)CN3C(=O)[C@H]([C@@H](C)O)NC(=O)[C@@H](NC(=O)CCCCCCCC[C@@H](C)C[C@@H](C)CC)C[C@@H](O)[C@@H](NCCN)NC(=O)[C@@H]3[C@@H](O)CCN3C(=O)[C@H]([C@H](O)CCN)NC2=O)cc1` ?
Solution: 0.25 µg/mL

Problem: What do we get for `CC[C@H](C)C[C@H](C)CCCCCCCCC(=O)N[C@H]1C[C@@H](O)[C@@H](NCCN)NC(=O)[C@@H]2[C@@H](O)CCN2C(=O)[C@H]([C@H](O)CCN)NC(=O)[C@H]([C@H](O)[C@@H](O)c2ccc(OCc3cn(CCCNC(=O)c4ccc(-c5c6ccc(=[N+](C)C)cc-6oc6cc(N(C)C)ccc56)c(C(=O)[O-])c4)nn3)cc2)NC(=O)[C@@H]2C[C@@H](O)CN2C(=O)[C@H]([C@@H](C)O)NC1=O` ?
Solution: 0.5 µg/mL
